- ASSAY_SUMMARY: in vitro dissolution of premix compared to beta form
- Type: physicochemical
- ASSAY_CONTEXT: Time in min 120; unit assumed
REPORTED_METRIC: in vitro dissolution (%)
Your answer should be a plain number; it is taken to be in %.

Query Br.Cc1ccc(Sc2ccccc2N2CCNCC2)c(C)c1 [Beta Form, Vortioxetine hydrobromide] yields in vitro dissolution of 37

----------
- ASSAY_SUMMARY: in vitro dissolution of premix compared to beta form
- Format: physicochemical
- ASSAY_CONTEXT: Time in min 480; unit assumed
REPORTED_METRIC: in vitro dissolution (%)
Your answer should be a plain number; it is taken to be in %.

Query Br.Cc1ccc(Sc2ccccc2N2CCNCC2)c(C)c1 [Beta Form, Vortioxetine hydrobromide] yields in vitro dissolution of 61
